Listed below: protein stability index values for each entry.
B1: FBXO3 (parent)
chain: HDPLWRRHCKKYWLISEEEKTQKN

Variants of: B1
ASSAY REMARKS: protein stability index of a GFP-peptide fusion (GPS, HEK-293T) (PSI 1-6); higher = more stable;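 also: lentivirally expressed fusions sorted by FACS into six bins by GFP to DsRed ratio, PSI derived from sequencing read proportions per bin multiplied by bin number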
MEASUREMENT CONDITIONS: c terminus: a fixed tail appended
// response body must contain only the number

VARIANT: E18P
protein stability index: 2.91

For L4A , write its protein stability index.
2.92

Supply reported protein stability index belonging to this variant: K23N
3.05

Note protein stability index for the variant shown: I15P
3.68

Find the measured protein stability index of K11H and report it.
3.26

Read off the recorded protein stability index for L14I
2.99
